pEC50 by entry:
# Tested on: HCV 1b-377-neo replicon cells
# test summary: HCV Replicon assay, HCV 1b genotype
# Assay type: cell-based
# test parameters: Hepatitis C virus, class symbol, read-out: EC50 range against HCV 1b
pEC50: −log10 of the molar value.

compound | property label | reported
COC(=O)N[C@H](C(=O)N1CCC[C@H]1c1ncc(-c2ccc3c(c2)C2(CCC2)c2cc(-c4cnc([C@@H]5CCCN5C(=O)[C@@H](NC(=O)OC)C(C)C)[nH]4)ccc2-3)[nH]1)C(C)C | pEC50 | 10.00 to 12.00

What measured pEC50 is associated with COC(=O)N[C@H](C(=O)N1CCC[C@H]1c1ncc(-c2ccc3c4ccc(-c5cnc([C@@H]6CCCN6C(=O)[C@@H](NC(=O)OC)C(C)C)[nH]5)cc4n(C)c3c2)[nH]1)C(C)C on HCV 1b-377-neo replicon cells?
10.00 to 12.00

So what pEC50 did COC(=O)NC(C(=O)N1CCC[C@H]1c1ncc(-c2ccc3c(c2)COCc2cc(-c4cnc([C@@H]5CCCN5C(=O)C(NC(=O)OC)C5CCOCC5)[nH]4)ccc2-3)[nH]1)C1CCOCC1 (stereo partly drawn) [Example 10A] get with HCV 1b-377-neo replicon cells?
7.00 to 9.00
